# System: TUR (Acute Myeloid Leukemia)
# procedureText: combination Emax (second highest fraction inhibited in the dose matrix, 72 h); higher = more inhibition; extreme values may be limits of the assay

compound: NC1(C(=O)N[C@@H](CCO)c2ccc(Cl)cc2)CCN(c2ncnc3[nH]ccc23)CC1 [Capivasertib] + Cn1cnc2c(F)c(Nc3ccc(Br)cc3Cl)c(C(=O)NOCCO)cc21 [Selumetinib] (first compound max 10 µM, 7x7, partner max 10 µM)
combination Emax: 0.924

compound: Cc1c2c(nn1C)CSCc1cc(n(C)n1)CSc1cc(c3ccccc3c1)OCCCc1c(C(=O)O)n(C)c3c-2c(Cl)ccc13 [AZD5991] + C[C@@H](Nc1cc(F)cc(F)c1)c1cc(C(=O)N(C)C)cc2c(=O)cc(N3CCOCC3)oc12 [AZD8186] (first compound max 1 µM, 7x7, partner max 3 µM)
combination Emax: 0.391

----------
# Test system: GAK (Melanoma)
# procedureText: Bliss excess, mean over the matrix (fraction); higher = more synergy

compound: CC1(C)CCC(CN2CCN(c3ccc(C(=O)NS(=O)(=O)c4ccc(NCC5CCOCC5)c([N+](=O)[O-])c4)c(Oc4cnc5[nH]ccc5c4)c3)CC2)=C(c2ccc(Cl)cc2)C1 [Venetoclax] + C[C@@H](Nc1cc(F)cc(F)c1)c1cc(C(=O)N(C)C)cc2c(=O)cc(N3CCOCC3)oc12 [AZD8186] (first compound max 1 µM, 7x7, partner max 3 µM)
Bliss excess: -0.0325

compound: CN(C)CCCOc1ccc(-c2ccc3ncc4c(c3c2)n(C2CCOCC2)c(=O)n4C)cn1 [AZD0156] + CCN(CCO)CCCOc1ccc2c(Nc3cc(CC(=O)Nc4cccc(F)c4)[nH]n3)ncnc2c1 [AZD2811] (first compound max 1 µM, 7x7, partner max 1 µM)
Bliss excess: -0.0025

compound: CCc1c2c(nc3ccc(O)cc13)-c1cc3c(c(=O)n1C2)COC(=O)[C@]3(O)CC [SN-38] + CN(C)CCCOc1ccc(-c2ccc3ncc4c(c3c2)n(C2CCOCC2)c(=O)n4C)cn1 [AZD0156] (first compound max 0.3 µM, 7x7, partner max 1 µM)
Bliss excess: 0.0182

compound: Cc1cc2ncnn2cc1Nc1ncc2c(n1)n(C1CCOCC1)c(=O)n2C [AZD7648] + C=CCn1c(=O)c2cnc(Nc3ccc(N4CCN(C)CC4)cc3)nc2n1-c1cccc(C(C)(C)O)n1 [AZD1775] (first compound max 10 µM, partner max 1 µM)
Bliss excess: -0.0275

----------
Each entry below carries its reported Bliss excess.
# Tested on: MOLT-13 (T-Lymphoblastic Leukemia)
# procedureText: Bliss excess, mean over the matrix (fraction); higher = more synergy

compound: Cc1c2c(nn1C)CSCc1cc(n(C)n1)CSc1cc(c3ccccc3c1)OCCCc1c(C(=O)O)n(C)c3c-2c(Cl)ccc13 [AZD5991] + C=CCn1c(=O)c2cnc(Nc3ccc(N4CCN(C)CC4)cc3)nc2n1-c1cccc(C(C)(C)O)n1 [AZD1775] (first compound max 1 µM, partner max 1 µM)
Bliss excess: -0.0071

compound: C=CCn1c(=O)c2cnc(Nc3ccc(N4CCN(C)CC4)cc3)nc2n1-c1cccc(C(C)(C)O)n1 [AZD1775] + O=C(c1cc(Cc2n[nH]c(=O)c3ccccc23)ccc1F)N1CCN(C(=O)C2CC2)CC1 [Olaparib] (first compound max 1 µM, partner max 10 µM)
Bliss excess: 0.021

compound: CCN(CCO)CCCOc1ccc2c(Nc3cc(CC(=O)Nc4cccc(F)c4)[nH]n3)ncnc2c1 [AZD2811] + C[C@@H]1COCCN1C2=NC(=NC(=C2)C3(CC3)[S@](=N)(=O)C)C4=C5C=CNC5=NC=C4 [AZD6738] (first compound max 1 µM, 7x7, partner max 10 µM)
Bliss excess: -0.0075

compound: C[C@@H](c1ccc2nccn2c1)n1nnc2ncc(-c3cnn(C)c3)nc21 [Savolitinib] + Cc1c2c(nn1C)CSCc1cc(n(C)n1)CSc1cc(c3ccccc3c1)OCCCc1c(C(=O)O)n(C)c3c-2c(Cl)ccc13 [AZD5991] (first compound max 1 µM, 7x7, partner max 1 µM)
Bliss excess: -0.0368

compound: C[C@@H](c1ccc2nccn2c1)n1nnc2ncc(-c3cnn(C)c3)nc21 [Savolitinib] + CN(CC[C@H](CSC1=CC=CC=C1)NC2=C(C=C(C=C2)S(=O)(=O)NC(=O)C3=CC=C(C=C3)N4CCC(CC4)[C@H](C5=CC=CC=C5C6=CC=C(C=C6)Cl)O)S(=O)(=O)C(F)(F)F)CCO [AZD4320] (first compound max 1 µM, 7x7, partner max 1 µM)
Bliss excess: -0.0166

compound: COc1cccc(OCCCN)c1-c1cc(Nc2cnc(C#N)cn2)n[nH]1 [Prexasertib] + C[C@@H]1COCCN1C2=NC(=NC(=C2)C3(CC3)[S@](=N)(=O)C)C4=C5C=CNC5=NC=C4 [AZD6738] (first compound max 1 µM, 7x7, partner max 10 µM)
Bliss excess: 0.002

compound: COc1cccc(OCCCN)c1-c1cc(Nc2cnc(C#N)cn2)n[nH]1 [Prexasertib] + CN(C)CCCOc1ccc(-c2ccc3ncc4c(c3c2)n(C2CCOCC2)c(=O)n4C)cn1 [AZD0156] (first compound max 1 µM, 7x7, partner max 1 µM)
Bliss excess: 0.0118
